Tested on: Escherichia coli BW25113
assay-protocol: plate-normalized OD600 growth (mean of duplicates) (OD600 (normalized)); higher = more growth (less inhibition)
settings: temperature: 15°C; 48 h; 10 µM
Whole data set: some 2,300 compounds, median “plate-normalized OD600 growth (mean of duplicates)” near 0.29, cut for the lowest 2% near 0.22. What follows is part of a selection rich in the lowest values, with near analogues and random picks from the rest.
reported-endpoint: plate-normalized OD600 growth
Write the value as a bare number.

Consider the compound CCN=C(NCC)SC1CC(=O)N(c2ccc(C(=O)O)cc2)C1=O (stereo not drawn) . State its measured plate-normalized OD600 growth. 0.246

Consider the compound O=C(O)CCCN1C(=O)C(=O)C(=C(O)c2ccccc2)C1c1ccc(Br)cc1 (stereo not drawn) . State its measured plate-normalized OD600 growth. 0.226

Consider the compound `CC(=O)Nc1ccc(NC(=O)CSc2nnc(NS(C)(=O)=O)s2)cc1` . State its measured plate-normalized OD600 growth. 0.252

Consider the compound `N#Cc1cc(I)c(C#N)c(I)c1` . State its measured plate-normalized OD600 growth. 0.198

Consider the compound `CCOc1ccc(C(C)(C)C(=O)Nc2ccc(C(=O)/C=C/c3ccco3)cc2)cc1` . State its measured plate-normalized OD600 growth. 0.266

Consider the compound `O=C(NCc1csc(-c2cccs2)n1)C1=Cc2ccccc2OC1` . State its measured plate-normalized OD600 growth. 0.243

Consider the compound COc1cc2c(cc1OC)C(C)N(S(=O)(=O)c1cn(C)c(C)n1)CC2 (stereo not drawn) . State its measured plate-normalized OD600 growth. 0.245

Consider the compound `Cc1ccc(N=Cc2ccc(Sc3nc4ccccc4s3)o2)cc1` . State its measured plate-normalized OD600 growth. 0.245

Consider the compound `Cc1oc(CC(C)C)cc1C(=O)Nc1cccc(C(=O)O)c1` . State its measured plate-normalized OD600 growth. 0.255

Consider the compound `C/C(=C\C(=O)Nc1ccc(F)cc1)Nc1ccc(F)cc1` . State its measured plate-normalized OD600 growth. 0.253

Consider the compound `CCOC(=O)c1cnn(-c2ccc(NS(=O)(=O)c3ccc(Cl)cc3)cc2)c1C(F)(F)F` . State its measured plate-normalized OD600 growth. 0.233

Consider the compound `O=C1NC(=O)c2cc(-c3ccc([N+](=O)[O-])cc3)ccc21` . State its measured plate-normalized OD600 growth. 0.241

Consider the compound `COc1ccccc1Oc1ccc(C(F)(F)F)cc1NC(=O)NC(=O)c1ccccc1F` . State its measured plate-normalized OD600 growth. 0.265

Consider the compound `NS(=O)(=O)c1ccc(-n2ncc3ccccc3c2=O)cc1` . State its measured plate-normalized OD600 growth. 0.214

Consider the compound `O=[N+]([O-])c1cnc(Sc2n[nH]c(-c3cccs3)n2)s1` . State its measured plate-normalized OD600 growth. 0.225

Consider the compound `C/C(=N/OC(=O)c1ccc(Cl)cc1)c1ccc(F)cc1` . State its measured plate-normalized OD600 growth. 0.236

Consider the compound `CCc1ccc(NC(=O)CSc2nnc3n(N)cnn23)cc1` . State its measured plate-normalized OD600 growth. 0.238

Consider the compound `O=[N+]([O-])c1ccc(-c2ncn[nH]2)cc1` . State its measured plate-normalized OD600 growth. 0.209

Consider the compound COc1ccc(C2CC(=O)N2C2(C(=O)Nc3c(C)cccc3C)CCCCC2)cc1OC (stereo not drawn) . State its measured plate-normalized OD600 growth. 0.24

Consider the compound `O=C(O)c1cccc(S(=O)(=O)Nc2ccc(Cl)cc2)c1` . State its measured plate-normalized OD600 growth. 0.257

Consider the compound `Clc1ccc2nc(N3CCOCC3)nc(-c3ccccc3)c2c1` . State its measured plate-normalized OD600 growth. 0.251

Consider the compound `CCc1nc(N)c(C#N)c(-c2ccccc2)c1C` . State its measured plate-normalized OD600 growth. 0.239

Consider the compound CC(Oc1ccccc1)C(=O)Nc1ccc(Cl)cc1 (stereo not drawn) . State its measured plate-normalized OD600 growth. 0.222
